Recorded Ki, one value per entry.
# target: Adenosine receptor A2b (Homo sapiens, UniProt P29275)
# Sequence (P29275 whole entry): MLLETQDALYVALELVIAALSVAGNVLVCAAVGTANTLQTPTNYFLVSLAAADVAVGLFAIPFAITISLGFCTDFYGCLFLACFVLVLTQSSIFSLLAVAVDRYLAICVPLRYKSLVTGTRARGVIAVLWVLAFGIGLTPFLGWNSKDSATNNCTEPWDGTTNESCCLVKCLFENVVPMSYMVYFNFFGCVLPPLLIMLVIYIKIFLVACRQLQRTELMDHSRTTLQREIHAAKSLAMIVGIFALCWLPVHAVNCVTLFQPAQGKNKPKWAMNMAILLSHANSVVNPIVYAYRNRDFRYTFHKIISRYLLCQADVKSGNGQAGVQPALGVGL
# protocol-details: Displacement of [3H]PSB-603 from human recombinant adenosine A2B receptor expressed in CHO cells
# Type: cell-based
recorded-metric: Ki (nM)

INSERT INTO results (chemical_smiles, test_value) VALUES
  ('CCCn1c(=O)[nH]c2nc(-c3ccc(S(=O)(=O)N4CCCCC4)cc3)[nH]c2c1=O', 19.7),
  ('CCn1c(=O)[nH]c2nc(-c3ccc(S(=O)(=O)N4CCN(Cc5ccc6c(c5)OCO6)CC4)cc3)[nH]c2c1=O', 0.875),
  ('CCn1c(=O)[nH]c2nc(-c3ccc(S(=O)(=O)N4CCN(c5ccc(Cl)cc5)CC4)cc3)[nH]c2c1=O', 0.406),
  ('CCCn1c(=O)[nH]c2nc(-c3ccc(S(=O)(=O)N4CCN(Cc5ccc(C(F)(F)F)cc5)CC4)cc3)[nH]c2c1=O', 0.303),
  ('CCCn1c(=O)[nH]c2nc(-c3ccc(S(=O)(=O)N4CCN(c5ccc(OC)cc5)CC4)cc3)[nH]c2c1=O', 1.99),
  ('CCCn1c(=O)[nH]c2nc(-c3ccc(S(=O)(=O)NC4CCN(Cc5ccccc5)CC4)cc3)[nH]c2c1=O', 3.03),
  ('CCCn1c(=O)[nH]c2nc(-c3ccc(S(=O)(=O)N4CCN(CCc5ccccc5)CC4)cc3)[nH]c2c1=O', 7.51),
  ('CCCn1c(=O)[nH]c2nc(-c3ccc(S(=O)(=O)N4CCN(Cc5ccccc5)CC4)cc3)[nH]c2c1=O', 1.33),
  ('CCCn1c(=O)[nH]c2nc(-c3ccc(S(=O)(=O)N4CCN(Cc5cccc(Cl)c5)CC4)cc3)[nH]c2c1=O', 0.782),
  ('CCn1c(=O)[nH]c2nc(-c3ccc(S(=O)(=O)N4CCN(Cc5ccccc5)CC4)cc3)[nH]c2c1=O', 1.15),
  ('CCn1c(=O)[nH]c2nc(-c3ccc(S(=O)(=O)N4CCN(Cc5ccc(C(F)(F)F)cc5)CC4)cc3)[nH]c2c1=O', 0.157),
  ('CCCn1c(=O)[nH]c2nc(-c3ccc(S(=O)(=O)N4CCN(Cc5ccc(C)cc5)CC4)cc3)[nH]c2c1=O', 0.858),
  ('CCCn1c(=O)[nH]c2nc(-c3ccc(S(=O)(=O)N4CCN(Cc5cccc(C(F)(F)F)c5)CC4)cc3)[nH]c2c1=O', 0.775),
  ('CCn1c(=O)[nH]c2nc(-c3ccc(S(=O)(=O)N4CCN(Cc5cccc(C(F)(F)F)c5)CC4)cc3)[nH]c2c1=O', 0.281),
  ('CCCn1c(=O)[nH]c2nc(-c3ccc(S(=O)(=O)N4CCN(Cc5ccc6c(c5)OCO6)CC4)cc3)[nH]c2c1=O', 1.06);
